# Target System: recombinant human CYP2D6 (rhCYP2D6) (Homo sapiens)
# Sequence (P10635 whole entry): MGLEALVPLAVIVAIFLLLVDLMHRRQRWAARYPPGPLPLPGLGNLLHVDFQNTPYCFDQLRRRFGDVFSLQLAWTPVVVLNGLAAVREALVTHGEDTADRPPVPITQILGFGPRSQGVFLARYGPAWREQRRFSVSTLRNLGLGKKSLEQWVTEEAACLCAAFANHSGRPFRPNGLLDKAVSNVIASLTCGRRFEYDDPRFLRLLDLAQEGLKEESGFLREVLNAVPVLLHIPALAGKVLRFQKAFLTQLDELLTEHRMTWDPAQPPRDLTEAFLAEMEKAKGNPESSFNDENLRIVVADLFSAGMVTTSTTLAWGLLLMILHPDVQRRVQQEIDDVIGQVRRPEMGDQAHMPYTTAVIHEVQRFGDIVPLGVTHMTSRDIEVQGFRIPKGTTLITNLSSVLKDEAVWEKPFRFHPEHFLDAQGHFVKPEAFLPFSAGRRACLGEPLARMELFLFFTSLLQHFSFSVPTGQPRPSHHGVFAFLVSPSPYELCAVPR
# Experiment Description: Metabolism-dependent CYP2D6 inhibition assay (IC50 shift) using rhCYP2D6
# Applied Conditions: IC50 against rhCYP2D6, pre-incubation without NADPH, 30 min pre-incubation in the absence of NADPH
Observation Type: pIC50
Kindly note that pIC50 refers to -log10 of the concentration in mol/L and answer with the value alone.

Query: Could you tell me which pIC50 is on file for `COc1ccc2cc3[n+](cc2c1OC)CCc1cc2c(cc1-3)OCO2` ?
Response: 5.27

----------
# Target System: CYP2C9 (Homo sapiens, UniProt P11712)
# Sequence (P11712 whole entry): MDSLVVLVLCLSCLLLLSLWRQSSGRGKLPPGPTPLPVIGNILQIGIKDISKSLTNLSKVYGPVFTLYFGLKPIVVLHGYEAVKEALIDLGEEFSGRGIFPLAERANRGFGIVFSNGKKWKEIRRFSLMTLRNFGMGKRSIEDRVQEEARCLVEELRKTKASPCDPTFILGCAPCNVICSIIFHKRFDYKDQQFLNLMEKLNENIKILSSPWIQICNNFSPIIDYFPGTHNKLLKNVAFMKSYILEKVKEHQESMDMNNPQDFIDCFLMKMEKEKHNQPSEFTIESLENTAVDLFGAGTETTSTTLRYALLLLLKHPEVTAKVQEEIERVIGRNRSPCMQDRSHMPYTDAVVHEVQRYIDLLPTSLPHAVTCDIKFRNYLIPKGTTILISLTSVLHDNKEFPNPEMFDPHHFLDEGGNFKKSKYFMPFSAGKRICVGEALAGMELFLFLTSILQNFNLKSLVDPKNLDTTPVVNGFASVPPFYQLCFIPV
# Experiment Description: Direct CYP inhibition assay using pooled HLM
# Applied Conditions: read-out: IC50 CYP2C9; pooled HLM; direct inhibition; 95% confidence intervals in parentheses
pIC50: −log10 of the molar value.
Observation Type: pIC50

Query: Could you tell me which pIC50 is on file for `COc1ccc2cc3[n+](cc2c1OC)CCc1cc(O)c(O)cc1-3` ?
Response: < 4.00
